Test system: PPARg DBDmut IVT, anti-PPARg (DBD mutation: PPARg1 K132A/R137A, NR concentration 270 nM)
Test: PBM binding z-score (relative to random genomic background probes); higher = stronger binding; sequences stand for … in GC…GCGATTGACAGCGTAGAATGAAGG
Tag: yes (1) if measured PBM binding z-score is not below 0.6, no (0) if it is.

Some solved cases for reference:
sequence_data=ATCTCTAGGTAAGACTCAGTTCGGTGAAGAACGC category="no (0)"
sequence_data=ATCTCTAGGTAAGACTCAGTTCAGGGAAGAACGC category="yes (1)"
sequence_data=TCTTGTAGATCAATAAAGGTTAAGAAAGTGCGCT category="yes (1)"
sequence_data=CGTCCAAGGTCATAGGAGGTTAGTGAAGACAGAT category="no (0)"

Kindly consider the entry below.
(Q) # check: PBM binding z-score of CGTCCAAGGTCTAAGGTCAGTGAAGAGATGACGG is greater than or equal to 0.6
(A) no (0)

###

Exercise: state measured PBM binding z-score for each of the sequences provided.
System: LXRb:RXRa (NR concentration 270 nM, RXRa partner concentration 90 nM)
Assay: PBM binding z-score (relative to random genomic background probes); higher = stronger binding; sequences stand for … in GC…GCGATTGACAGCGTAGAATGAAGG

sequence_data=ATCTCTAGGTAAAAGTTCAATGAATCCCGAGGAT experimental_system="LXRb:RXRa (NR concentration 270 nM, RXRa partner concentration 90 nM)" attribute_measured="PBM binding z-score" value_reported=2.03
sequence_data=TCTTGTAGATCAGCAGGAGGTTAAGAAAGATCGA experimental_system="LXRb:RXRa (NR concentration 270 nM, RXRa partner concentration 90 nM)" attribute_measured="PBM binding z-score" value_reported=0.538
sequence_data=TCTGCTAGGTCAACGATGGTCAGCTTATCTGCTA experimental_system="LXRb:RXRa (NR concentration 270 nM, RXRa partner concentration 90 nM)" attribute_measured="PBM binding z-score" value_reported=1.77
sequence_data=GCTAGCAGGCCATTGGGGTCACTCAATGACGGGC experimental_system="LXRb:RXRa (NR concentration 270 nM, RXRa partner concentration 90 nM)" attribute_measured="PBM binding z-score" value_reported=3.06

Could you tell me PBM binding z-score for each of these sequences? They are listed below.
1. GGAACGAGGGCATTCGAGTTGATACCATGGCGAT
2. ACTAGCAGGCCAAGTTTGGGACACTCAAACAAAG
3. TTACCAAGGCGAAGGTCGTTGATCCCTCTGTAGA

(A)
1: 0.458; 2: -0.515; 3: 1.43

Could you tell me PBM binding z-score for each of these sequences? They are listed below.
1. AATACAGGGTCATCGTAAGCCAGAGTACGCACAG
2. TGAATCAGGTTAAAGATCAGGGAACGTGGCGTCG
3. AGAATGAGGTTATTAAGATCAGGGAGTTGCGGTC
4. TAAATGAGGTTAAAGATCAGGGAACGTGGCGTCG

(A)
1. 4.69
2. 0.221
3. 1.29
4. 2.46

Could you tell me PBM binding z-score for each of these sequences? They are listed below.
1. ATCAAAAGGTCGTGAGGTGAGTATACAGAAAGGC
2. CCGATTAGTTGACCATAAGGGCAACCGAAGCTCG
3. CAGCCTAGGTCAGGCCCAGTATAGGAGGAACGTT
4. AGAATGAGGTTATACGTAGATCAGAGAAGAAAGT

(A)
1. 3.63
2. 0.217
3. 0.0997
4. 1.57

Could you tell me PBM binding z-score for each of these sequences? They are listed below.
1. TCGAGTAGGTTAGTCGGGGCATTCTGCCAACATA
2. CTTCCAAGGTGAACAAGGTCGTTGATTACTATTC
3. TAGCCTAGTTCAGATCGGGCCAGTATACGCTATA
4. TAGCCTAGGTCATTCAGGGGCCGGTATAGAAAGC

(A)
1: 0.145; 2: 1.67; 3: -0.308; 4: 2.73

Where do these numbers come from? They come from the supplement of paper PMC6555819.
